studyTarget: T1, NFIL3 R95Q (human, UniProt Q16649 65-161, R95Q)
T1 sequence: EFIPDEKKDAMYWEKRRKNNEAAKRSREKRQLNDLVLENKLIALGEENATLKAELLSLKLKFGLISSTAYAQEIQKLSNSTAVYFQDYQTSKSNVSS
procedureText: ITC; ITC: 20 mM Tris pH 7.5, 150 mM NaCl, 25 °C; EMSA: same buffer, 4 °C, 6% native gel in 0.5x TBE
assayConditions: protein: recombinant; tags: His6-SUMO removed by TEV; chain copies: 2; blunt
outcomeMeasure: pKd
Scale for pKd: -log10 of concentration given in mol/L; no unit attached.

Identify the reported pKd for the following entry. TTACGTAA (dsDNA) DNA 1: CATTACGTAATG DNA 2: CATTACGTAATG
5.08
